Each record here notes measured protein stability index.
B1: C10orf62 (parent)
chain: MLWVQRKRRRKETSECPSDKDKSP

# Variants of: B1
# assay_details: protein stability index of a GFP-peptide fusion (GPS, HEK-293T) (PSI 1-6); higher = more stable;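 note: lentivirally expressed fusions sorted by FACS into six bins by GFP to DsRed ratio, PSI derived from sequencing read proportions per bin multiplied by bin number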
# condition_label: c terminus: a fixed tail appended
Form field (numeric): enter value without unit.

{"variant_annotation": "R6H", "observed_property": "protein stability index", "data_value": 2.88}
{"variant_annotation": "C16Q", "observed_property": "protein stability index", "data_value": 3.75}
{"variant_annotation": "Q5L", "observed_property": "protein stability index", "data_value": 2.4}

[in] Return value of protein stability index for input K11Y , no commentary.
[out] 2.31

[in] Return value of protein stability index for input K7D , no commentary.
[out] 3.97

Data origin, for the record: the supplement of paper PMC10567573
